Experiment: protein stability index of a GFP-peptide fusion (GPS, HEK-293T) (PSI 1-6); higher = more stable;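 note: 24-mer peptide tiles fused after GFP, lentivirally expressed, FACS-sorted into six equal bins by GFP/DsRed ratio, decoded by Illumina sequencing, PSI is the read-weighted mean bin number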
Details: treatment: DMSO; c terminus: a fixed tail appended
measure name: protein stability index
Would you mind answering with just the numeric figure?

{"seq text": "EEMEEEEEEEEEEDEDDDSADMDE [FBXO3]", "measure name": "protein stability index", "test value": 5.57}
{"seq text": "ATSGPPGIQPGQEPPVTMIFMGYQ [PALM]", "measure name": "protein stability index", "test value": 2.47}
{"seq text": "SENVVNRMKEPSSPPPAPTSSTFG [CHCHD6]", "measure name": "protein stability index", "test value": 5.04}
{"seq text": "SVGTYIIDLLTFLTGQKAVKVHGL [GFOD1]", "measure name": "protein stability index", "test value": 3.23}

Query: Note protein stability index for the sequence shown: GVNTVFHCASPPPSSNNKELFYRV [NSDHL]
Reply: 2.53

Query: Note protein stability index for the sequence shown: HLADLVSYSIQKVIGFAKMIPGFR [VDR]
Reply: 4.2

Query: Note protein stability index for the sequence shown: FFEILRLFFPVIYDVKYLMKSCKN [CNOT7]
Reply: 2.37

Query: Note protein stability index for the sequence shown: DNWDEKKLEEVVNKKHGEAEKKKP [ZC3H15]
Reply: 5.48

Query: Note protein stability index for the sequence shown: SFMMGQGGEAAHHTRSPYSTFYPP [NEUROD6]
Reply: 2.66

These measurements were taken from the supplement of paper PMC10567573.
